- study_system: Glutamate NMDA receptor
- assay_name: Displacement of [3H]TCP from the TCP site of NMDA receptor in rat brain homogenate
measured_parameter: IC50 (nM)
Write the number in nM without appending the unit.

Recorded IC50, per entry:
Measured IC50, OCCc1ccc(C2(c3cccs3)CC3c4ccccc4C2c2cccc[n+]23)s1 (stereo in doubt; 20) : 61

// field: IC50; key: FCCc1ccc(C2(c3cccs3)CC3c4ccccc4C2c2cccc[n+]23)s1 (stereo in doubt; 18) ; value = 47

For this compound ( OCCc1ccc(C2(c3ccc(CCO)s3)CC3c4ccccc4C2c2cccc[n+]23)s1 (configuration not stated) ), measured IC50 is 12400

Others:
Record summary for OCCc1ccc(C2(c3cccs3)CC3c4ccccc4C2c2cccc[n+]23)s1 (stereo in doubt; 21) : reported IC50 = 141

The recorded IC50 for FCCc1ccc(C2(c3cccs3)CC3c4ccccc4C2c2cccc[n+]23)s1 (stereo in doubt; 19) is 89

c1csc(C2(c3cccs3)CC3c4ccccc4C2c2cccc[n+]23)c1 (configuration not stated) yielded IC50 of 3.6

// recorded IC50 for c1ccc(C2(N3CCCCC3)CCCCC2)cc1 : 47
